System: Ramos B-Cell Line Stimulated with IL-4 (JAK-1 and JAK-3 / Stat-6, CD23)
assayExplanation: Assay for Ramos B-Cell Line Stimulated with IL-4 (CD23 upregulation, FACS)
Assay type: cell-based
conditionSummary: Homo sapiens, Ramos, human Ramos B cells, compound 1 hour, IL-4 50 units/mL for 20-24 hours, anti-CD23-PE FACS; read-out: Example 2 (IC50)
Each entry below carries its recorded pIC50.
The quantity pIC50 is defined as the negative base-10 logarithm of the molar concentration.

Examples from the recorded data:
# compound, pIC50
rows = [
    ("CC(C#N)Oc1ccc(Nc2nc(Nc3ccc(C(N)=O)cc3)ncc2F)cc1 (stereo not shown)", 7.28),
    ("N#Cc1cccc(Nc2ncc(F)c(Nc3ccc(OCC(N)=O)cc3)n2)c1", 6.05),
    ("Cc1noc(Cc2ccc(Nc3nc(Nc4ccc(CC#N)cc4)ncc3F)cc2)n1", 6.83),
]

Problem: Give the value of pIC50 reported for the following: `Cc1cc(Nc2nc(Nc3ccc(C(N)=O)cc3)ncc2F)ccc1OCC#N`
Solution: 7.35
